System: HOP-62 NSCLC
Assay: NCI-60 one-dose screen, 48 h
Details: 10 µM unless noted
Compounds without any hit were thinned out: in the full panel of roughly 83,000, 20% have a hit. Active and inactive are the calls of the source. Rule for the calls: active = growth percent below 10; inactive = the rest.
Outcomes: active, inactive

• COc1ccc(C(SCCNCc2cc(N(C)C)ccn2)(c2ccccc2)c2ccccc2)cc1 = inactive
• CCCCNC(=S)Nc1ccc(OCc2nc3ccccc3[nH]2)cc1 = inactive
• O=C(NNc1nc2cc(F)ccc2n2c(CN3CCCCC3)ccc12)c1cnccn1 = active
• O=c1[nH]n(C(=S)N/N=C/c2ccccc2Cl)c(=O)c2ccccc12 = active
• O=c1[nH]c(=O)c2c(-c3cc4ccccc4oc3=O)ccnc2[nH]1 = inactive
